I'd appreciate it if you could supply log10 vapour pressure (mmHg) values for the items below.
Numbers only.

Some compounds with recorded log10 vapour pressure (mmHg):
{"compound": "CC1CCCC1", "log10 vapour pressure (mmHg)": 2.14}
{"compound": "CCCCCCCCCCCc1ccccc1", "log10 vapour pressure (mmHg)": -3.62}
{"compound": "CC(C)(C)CC(C)(C)S", "log10 vapour pressure (mmHg)": 0.716}

Please state log10 vapour pressure (mmHg) for every compound in the list that follows.
1. Brc1cccnc1
2. CC(O)CNCC(C)O (stereo unspecified)
3. CC(C)(C)c1ccccc1O
4. CCC(Nc1ncnc(C)c1Cl)c1ccc(OC(F)F)cc1 (stereo unspecified)
5. C#CC(OC(=O)C1C(C=C(C)C)C1(C)C)/C(C)=C/CC (stereo unspecified)
6. CCc1ccccc1CC
7. CCCCC(CC)C(=O)O (stereo unspecified)
8. Oc1c(Cl)c(Cl)c(Cl)c(Cl)c1Cl

1: 0.244; 2: -3.9; 3: -1.05; 4: -5.62; 5: -3.98; 6: 0.0212; 7: -1.52; 8: -3.96

Please state log10 vapour pressure (mmHg) for every compound in the list that follows.
1. COc1ccc2c(c1)C(=O)c1ccccc1C2=O
2. C=CCCCCCCCCC
3. CCc1ccc2cc3ccccc3cc2c1
4. C=CCOCC
5. C[Si]1(C)O[Si](C)(C)O[Si](C)(C)O[Si](C)(C)O[Si](C)(C)O[Si](C)(C)O[Si](C)(C)O[Si](C)(C)O1

1. -10.2
2. -0.307
3. -5.28
4. 2.18
5. -2.54

Please state log10 vapour pressure (mmHg) for every compound in the list that follows.
1. CCCCCCCCCCCCCCCCCC(=O)OC
2. CC(N)Cc1ccccc1 (stereo unspecified)
3. NC(=O)C(N)=O
4. CCCCc1c(C)nc(N(C)C)nc1O
5. CCCCCC
6. OCC(F)(F)C(F)(F)F
7. Nc1cccc2c1C(=O)c1ccccc1C2=O
8. CC(C)C12CCC(C)(CC1)O2

[-4.87, -0.62, -7.2, -4.96, 2.18, 1.66, -8.3, 0.286]

---

I'd appreciate it if you could supply melting point values for the items below.
One number for each entry, in °C.

Some molecules with recorded melting point:
{"molecule": "O=C(O)c1cccc(C(=O)O)c1C(=O)O", "melting point [°C]": 200}
{"molecule": "CCOC(=O)OCC", "melting point [°C]": -43}
{"molecule": "COC=O", "melting point [°C]": -99}
{"molecule": "CCCCc1ccc2ccccc2c1", "melting point [°C]": -5}
{"molecule": "N#Cc1ccncc1", "melting point [°C]": 79}

Please state melting point for every molecule in the list that follows.
1. O=C(Oc1cccc(O)c1)c1ccccc1
2. CCCCCCCCCCCC#N
3. c1ccc2sc(SNC3CCCCC3)nc2c1
4. CCCCC=CC(=O)O
5. CC(C)[C@H]1CC[C@]2(C)C[C@H](O)[C@]3(C)CC[C@]12O3
6. CCOC(=O)C(C)OC(=O)c1cc(Oc2ccc(C(F)(F)F)cc2Cl)ccc1[N+](=O)[O-] (stereo not given)
7. FC(F)(F)C(Cl)=C(Cl)C(F)(F)F

1. 134
2. 4
3. 98
4. -19
5. 114
6. 45
7. -67.3

Please state melting point for every molecule in the list that follows.
1. Nc1ccc(S(=O)(=O)Nc2cnc3ccccc3n2)cc1
2. CCC(=O)c1ccco1
3. Cc1cccc(Cl)c1N
4. CCc1ccccc1Br
5. CC(C)(C)c1ccc(O)c(C(C)(C)C)c1
6. Cc1cccc([N+](=O)[O-])c1C
7. CCCCCCCCc1ccc(N)cc1
8. CCCCCS

1. 248
2. 28
3. 2
4. -67.9
5. 56.5
6. 15
7. 20
8. -75.7

Please state melting point for every molecule in the list that follows.
1. O=C(Cl)c1ccc(Br)cc1
2. Cc1nc2cc(-c3ccccc3)ccc2o1
3. Cc1cccc(N=Nc2ccc(N(C)C)cc2)c1
4. CC1=CC(=O)C(C2=C(O)C(=O)C(C)=CC2=O)=C(O)C1=O
5. Nc1cc(Cl)ccc1O
6. OB(c1ccccc1)c1ccccc1

42
63
138
230
140
57.5

Please state melting point for every molecule in the list that follows.
1. CCCCCCCCCCCCNC(=N)N
2. O=C(c1ccccc1)c1ccc(Cl)c([N+](=O)[O-])c1

[136, 105]
